PROTOCOL_NOTES: in vitro
EXPERIMENTAL_PARAMETERS: human, hela cells, % viability
Threshold 90%. viability at 28.5 h, 10 µM below it: 1 (yes). viability at 28.5 h, 10 µM at it or above: 0 (no).

[ask] Answer whether the compound COc1ccccc1NC(CC(=O)c1ccccc1)C(=O)O (stereo not shown) [CBK287190] has viability at 28.5 h, 10 µM strictly less than 90%
[reply] 1 (yes)

[ask] Answer whether the compound CCNc1cncc(-c2cc(OC)c(OC)c(OC)c2)n1 [CBK065336] has viability at 28.5 h, 10 µM strictly less than 90%
[reply] 0 (no)

[ask] Answer whether the compound Cc1cc(NS(=O)(=O)c2ccc(Cl)c(Cl)c2)n(C)n1 [CBK067254] has viability at 28.5 h, 10 µM strictly less than 90%
[reply] 0 (no)

[ask] Answer whether the compound COc1ccc(N2CCN(Cc3nc4c(c(=O)n(C)c(=O)n4C)n3Cc3cccc(C)c3)CC2)cc1 [CBK269552] has viability at 28.5 h, 10 µM strictly less than 90%
[reply] 1 (yes)

[ask] Answer whether the compound CCN1CC2(CCN(Cc3nc4ccccc4s3)CC2)c2ccccc21 [CBK136993] has viability at 28.5 h, 10 µM strictly less than 90%
[reply] 0 (no)

[ask] Answer whether the compound C=CCn1c(SCC(=O)N2c3ccccc3C(C)(c3ccccc3)CC2(C)C)nnc1-c1ccncc1 (stereo not shown) [CBK059171] has viability at 28.5 h, 10 µM strictly less than 90%
[reply] 1 (yes)

[ask] Answer whether the compound O=C(CCc1nc2ccccc2s1)Nc1nc2ccccc2[nH]1 [CBK287988] has viability at 28.5 h, 10 µM strictly less than 90%
[reply] 0 (no)

[ask] Answer whether the compound CC1CCc2c(sc(NC(=O)c3cc(-c4ccccn4)nc4c(Cl)cccc34)c2C(N)=O)C1 (stereo not shown) [CBK267744] has viability at 28.5 h, 10 µM strictly less than 90%
[reply] 0 (no)

[ask] Answer whether the compound CCOc1ccccc1CN(C)c1cc(C2CC(N)C2)nc(N)n1 (stereo not shown) [CBK307308] has viability at 28.5 h, 10 µM strictly less than 90%
[reply] 1 (yes)

[ask] Answer whether the compound O=S(=O)(Nc1nnn[nH]1)c1ccc(Cl)c(Cl)c1 [CBK062387] has viability at 28.5 h, 10 µM strictly less than 90%
[reply] 0 (no)

[ask] Answer whether the compound COCC(C)NC(=O)C1CCCN(S(=O)(=O)c2ccc(OC)c(C)c2)C1 (stereo not shown) [CBK270242] has viability at 28.5 h, 10 µM strictly less than 90%
[reply] 1 (yes)

[ask] Answer whether the compound Cn1c(-c2nonc2N)nc2ccccc21 [CBK062642] has viability at 28.5 h, 10 µM strictly less than 90%
[reply] 0 (no)

[ask] Answer whether the compound Cc1ccc(S(=O)(=O)Nc2ccc(Nc3cc(-c4cccc([N+](=O)[O-])c4)ncn3)cc2)cc1 [CBK090983] has viability at 28.5 h, 10 µM strictly less than 90%
[reply] 0 (no)

[ask] Answer whether the compound CC(C)(C)OC(=O)N1CCC(Sc2ccc(-c3ccco3)cc2)CC1 [CBK122552] has viability at 28.5 h, 10 µM strictly less than 90%
[reply] 1 (yes)

[ask] Answer whether the compound NC(=O)CS(=O)(=O)c1ccc(Cl)cc1 [CBK026373] has viability at 28.5 h, 10 µM strictly less than 90%
[reply] 0 (no)

[ask] Answer whether the compound CCOc1cc(/C=C2\S/C(=N/c3ccc(S(N)(=O)=O)cc3)NC2=O)c(Br)cc1O [CBK265622] has viability at 28.5 h, 10 µM strictly less than 90%
[reply] 0 (no)

[ask] Answer whether the compound Cc1ccc(S(N)(=O)=O)cc1NC(=O)c1ccco1 [CBK004204] has viability at 28.5 h, 10 µM strictly less than 90%
[reply] 0 (no)

[ask] Answer whether the compound Cc1ccc(S(=O)(=O)Nc2ccccc2CNc2ccc(Br)cc2)cc1 [CBK264214] has viability at 28.5 h, 10 µM strictly less than 90%
[reply] 0 (no)

[ask] Answer whether the compound Cc1cccc(OC(C)C(=O)Nc2ccccc2C(=O)N2CCCCC2)c1 (stereo not shown) [CBK269960] has viability at 28.5 h, 10 µM strictly less than 90%
[reply] 1 (yes)

[ask] Answer whether the compound Cc1cc(C)nc(Nc2nc3ccccc3[nH]2)n1 [CBK263539] has viability at 28.5 h, 10 µM strictly less than 90%
[reply] 0 (no)

[ask] Answer whether the compound Cc1nc2ccc(C(=O)OCc3ccc(S(=O)(=O)Cc4ccccc4)cc3)cc2nc1C [CBK269661] has viability at 28.5 h, 10 µM strictly less than 90%
[reply] 0 (no)

[ask] Answer whether the compound CC1(C)CC(=O)C2=C(C1)NC(SCC(=O)Nc1ccc(S(=O)(=O)N3CCCCC3)cc1)=C(C#N)C2c1ccco1 (stereo not shown) [CBK266695] has viability at 28.5 h, 10 µM strictly less than 90%
[reply] 0 (no)

[ask] Answer whether the compound CCOc1ccc(-c2cncc(Nc3ccc4c(c3)OC(F)(F)C(F)(F)O4)n2)cc1 [CBK065728] has viability at 28.5 h, 10 µM strictly less than 90%
[reply] 0 (no)

[ask] Answer whether the compound COC(=O)c1c(NC(=S)N2CCN(Cc3c(C)nn(C)c3C)CC2)sc2c1CCC(C)C2 (stereo not shown) [CBK267103] has viability at 28.5 h, 10 µM strictly less than 90%
[reply] 0 (no)

[ask] Answer whether the compound CCC(C)c1csc(C2CN3CCCC3CO2)n1 (stereo not shown) [CBK304805] has viability at 28.5 h, 10 µM strictly less than 90%
[reply] 1 (yes)

[ask] Answer whether the compound O=S(=O)(c1ccc(F)cc1)N1CCCC(c2nccnc2-c2ccc(F)cc2)C1 (stereo not shown) [CBK286136] has viability at 28.5 h, 10 µM strictly less than 90%
[reply] 0 (no)

[ask] Answer whether the compound O=C(c1ccccc1NS(=O)(=O)c1ccc(C(F)(F)F)cc1[N+](=O)[O-])N1CCOCC1 [CBK043353] has viability at 28.5 h, 10 µM strictly less than 90%
[reply] 1 (yes)

[ask] Answer whether the compound CN(C)S(=O)(=O)c1ccc(C(=O)C2=C(O)C(=O)N(CCN3CCOCC3)C2c2ccccc2)cc1 (stereo not shown) [CBK264540] has viability at 28.5 h, 10 µM strictly less than 90%
[reply] 0 (no)

[ask] Answer whether the compound Nc1nnc(SCC(=O)NC23CC4CC(CC(C4)C2)C3)s1 [CBK267417] has viability at 28.5 h, 10 µM strictly less than 90%
[reply] 0 (no)
